system: M1 muscarinic receptor (Homo sapiens)
Construct: expressed in transfected cells; host or cells: CHO (M1-CHO recombinant cell line)
Sequence (P11229 whole entry): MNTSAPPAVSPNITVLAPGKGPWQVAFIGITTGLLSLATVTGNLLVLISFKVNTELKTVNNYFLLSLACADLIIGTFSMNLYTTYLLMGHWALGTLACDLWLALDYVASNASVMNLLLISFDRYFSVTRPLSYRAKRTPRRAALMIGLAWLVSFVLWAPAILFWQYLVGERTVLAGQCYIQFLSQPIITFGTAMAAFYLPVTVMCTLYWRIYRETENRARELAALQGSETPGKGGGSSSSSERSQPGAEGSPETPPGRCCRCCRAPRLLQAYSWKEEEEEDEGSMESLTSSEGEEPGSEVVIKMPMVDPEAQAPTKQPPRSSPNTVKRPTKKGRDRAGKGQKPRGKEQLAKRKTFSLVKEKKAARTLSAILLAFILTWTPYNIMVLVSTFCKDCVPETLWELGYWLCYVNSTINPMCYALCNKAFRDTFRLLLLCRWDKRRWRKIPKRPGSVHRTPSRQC
experiment: Functional mobilization of intracellular calcium (FLIPR) in CHO cells expressing M1 muscarinic receptor
Type: cell-based
condition summary: CHO; 100% efficacy is the maximum response obtained with the Carbachol control
Record form. Attribute: Emax. Fill in for each entry.

Some molecules with recorded Emax:
INSERT INTO measurements (molecule, data_value) VALUES
  ('CCC(CC)NC(=O)C1=CC2(CCN(C3CCCCC3)CC2)c2ccccc21 [compound 73]', '< 25%'),
  ('CC(C)(C)CCN1CCC2(CC=C(C(=O)N3CCCC3)c3ccccc32)CC1 [compound 11]', '25 to 100%');

Could you report Emax for every entry in the following list?
1. CNC(=O)C1=CC2(CCN(CCC(C)CCCC(C)(C)OC)CC2)c2ccccc21 (centres unmarked) [compound 19]
2. CCC(CC)NC(=O)C1=CC2(CCN(CC3CC4C=CC3C4)CC2)c2ccccc21 (centres unmarked) [compound 30]
3. CC(C)NC(=O)C1=CC2(CCN(CC3CC4C=CC3C4)CC2)c2ccccc21 (centres unmarked) [compound 66]
4. C=CCOC(=O)N1CCC(N2CCC3(C=C(C(=O)NC(CC)CC)c4ccccc43)CC2)CC1 [compound 24]
5. CCOC(=O)N1C2CCC1CC(N1CCC3(CC=C(C(=O)N4CCCC4)c4ccccc43)CC1)C2 (centres unmarked) [compound 5]
6. CCC(CC)NC(=O)C1=CC2(CCN(C3CCNCC3)CC2)c2ccccc21 [compound 7]

[out]
1: 25 to 100%; 2: < 25%; 3: < 25%; 4: 25 to 100%; 5: 25 to 100%; 6: < 25%

----------
system: M1 muscarinic receptor (Homo sapiens)
Construct: expressed in transfected cells; host or cells: CHO (M1-CHO recombinant cell line)
experiment: Functional mobilization of intracellular calcium (FLIPR) in CHO cells expressing M1 muscarinic receptor
Type: cell-based
condition summary: CHO; 100% efficacy is the maximum response obtained with the Carbachol control
Record form. Attribute: Emax. Fill in for each entry.

Some compounds with recorded Emax:
INSERT INTO results (compound, data_value) VALUES
  ('CCC(CC)NC(=O)C1=CC2(CCN(C3CCN(C(=O)C4CC4)CC3)CC2)c2ccccc21', '< 25%'),
  ('CN(C)C(=O)C1=CC2(CCN(CCC(C)(C)C)CC2)c2ccccc21', '< 25%'),
  ('N#CC1=CCC2(CCN(C3C[C@@H]4CC[C@@H]3C4)CC2)c2ccccc21 (stereo partly shown)', '< 25%');

[in] What does the record list as Emax for `CCOC(=O)N1CCC(N2CCC3(C=C(C(=O)NC(CC)CC)c4ccccc43)CC2)CC1` ?
[out] 25 to 100%

----------
system: M1 muscarinic receptor (Homo sapiens)
Construct: expressed in transfected cells; host or cells: CHO (M1-CHO recombinant cell line)
experiment: Functional mobilization of intracellular calcium (FLIPR) in CHO cells expressing M1 muscarinic receptor
Assay type: cell-based
condition summary: CHO; 100% efficacy is the maximum response obtained with the Carbachol control
Record form. Attribute: Emax. Fill in for each entry.

Some compounds with recorded Emax:
INSERT INTO measurements (compound, data_value) VALUES
  ('CC(C)(C)CCN1CCC2(C=C(C(=O)O)c3ccccc32)CC1', '< 25%'),
  ('CN(C)C(=O)C1=CCC2(CCN(CCC(C)(C)C)CC2)c2ccccc21', '25 to 100%'),
  ('CN(C)C(=O)C1=CCC2(CCN(C3C[C@@H]4CC[C@@H]3C4)CC2)c2ccccc21 (stereo partly drawn)', '< 25%'),
  ('CCOC(=O)N1CCC(N2CCC3(CC=C(C(=O)N4CCCC4)c4ccccc43)CC2)CC1', '25 to 100%'),
  ('CCC(CC)NC(=O)C1=CC2(CCN(CC3CCCCC3)CC2)c2ccccc21', '< 25%');

Could you report Emax for every entry in the following list?
1. CCC(CC)NC(=O)C1=CC2(CCN(C3CCN(C(=O)N(C)C)CC3)CC2)c2ccccc21
2. CC(C)NC(=O)C1=CCC2(CCN(CCC(C)(C)C)CC2)c2ccccc21
3. CCC(CC)NC(=O)C1=CC2(CCN(C3C[C@@H]4CC[C@@H]3C4)CC2)c2ccccc21 (stereo in doubt)

[out]
1. < 25%
2. < 25%
3. < 25%

Could you report Emax for every entry in the following list?
1. CN(C)C(=O)C1=CC2(CCN(C3CCCCCC3)CC2)c2ccccc21
2. CNC(=O)C1=CC2(CCN(C3C[C@@H]4CC[C@@H]3C4)CC2)c2ccccc21 (stereo in doubt)
3. CCN(CC)C(=O)C1=CC2(CCN(CCC(C)(C)C)CC2)c2ccccc21
4. O=C(NC1CC1)C1=CC2(CCN(CC3CC4C=CC3C4)CC2)c2ccccc21 (stereo not drawn)
5. CCCC(C)NC(=O)C1=CC2(CCN(CC3CC4C=CC3C4)CC2)c2ccccc21 (stereo not drawn)
6. CNC(=O)C1=CC2(CCN(C3CCCCCC3)CC2)c2ccccc21
7. CCC(CC)NC(=O)C1=CC2(CCN(C3CCN(C(=O)N4CCOCC4)CC3)CC2)c2ccccc21
8. CCOC(=O)N1C2CCC1CC(N1CCC3(C=C(C(=O)O)c4ccccc43)CC1)C2 (stereo not drawn)

[out]
1. 25 to 100%
2. 25 to 100%
3. < 25%
4. 25 to 100%
5. < 25%
6. 25 to 100%
7. < 25%
8. 25 to 100%

Could you report Emax for every entry in the following list?
1. CCC(CC)NC(=O)C1=CC2(CCN(C3CCCC3)CC2)c2ccccc21
2. CCOC(=O)N1CCC(N2CCC3(C=C(C(=O)NC)c4ccccc43)CC2)CC1
3. CCC(CC)NC(=O)C1=CC2(CCN(CCC3CCSCC3)CC2)c2ccccc21
4. CNC(=O)C1=CC2(CCN(CCC(C)C)CC2)c2ccccc21
5. CNC(=O)C1=CC2(CCN(C3CCCCC3)CC2)c2ccccc21

[out]
["< 25%", "25 to 100%", "< 25%", "25 to 100%", "25 to 100%"]
